- measured.target: RIPK1 (Homo sapiens (Human))
- Sequence (Q13546 whole entry, species assumed): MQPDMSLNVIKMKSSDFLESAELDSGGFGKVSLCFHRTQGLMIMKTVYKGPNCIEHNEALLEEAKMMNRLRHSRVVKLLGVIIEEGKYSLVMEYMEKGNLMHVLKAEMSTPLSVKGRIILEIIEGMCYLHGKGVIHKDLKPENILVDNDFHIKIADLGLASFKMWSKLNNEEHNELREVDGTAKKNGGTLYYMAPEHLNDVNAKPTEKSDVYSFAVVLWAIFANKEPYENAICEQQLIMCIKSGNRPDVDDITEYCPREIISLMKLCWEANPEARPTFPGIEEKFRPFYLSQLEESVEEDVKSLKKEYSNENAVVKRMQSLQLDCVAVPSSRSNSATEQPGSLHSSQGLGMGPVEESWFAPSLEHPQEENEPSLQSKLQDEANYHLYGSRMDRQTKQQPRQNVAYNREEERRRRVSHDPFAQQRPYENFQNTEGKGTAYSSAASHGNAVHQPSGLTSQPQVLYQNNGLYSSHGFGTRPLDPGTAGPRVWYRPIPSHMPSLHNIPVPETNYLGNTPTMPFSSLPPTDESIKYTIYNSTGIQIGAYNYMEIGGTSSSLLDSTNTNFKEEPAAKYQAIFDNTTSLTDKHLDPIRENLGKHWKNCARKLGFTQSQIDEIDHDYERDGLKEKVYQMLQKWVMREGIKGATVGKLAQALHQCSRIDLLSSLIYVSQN
- test.details: RIPK1 ADP-Glo biochemical kinase assay
- protocol.conditions: read-out: RIPK1 ADP-Glo Kinase (IC50)

{"compound": "CN1C(=O)[C@@H](NC(=O)c2cc(Oc3ccccc3)ccn2)COc2ccc(C#CC3CCCN3)cc21 (stereo partly drawn) [II-39]", "measured.target": "RIPK1 (Homo sapiens (Human))", "unit.info": "nM", "IC50": 23}
{"compound": "CN1C(=O)[C@@H](NC(=O)c2n[nH]c(Cc3ccccc3)n2)COc2ccc(C#CC3(O)CCCC3)cc21 [Compound I-53]", "measured.target": "RIPK1 (Homo sapiens (Human))", "unit.info": "nM", "IC50": 34}
{"compound": "CN1C(=O)[C@@H](NC(=O)c2ncn(Cc3ccccc3)n2)COc2ccc(C#CC(C)(C)O)cc21 [Compound I-29]", "measured.target": "RIPK1 (Homo sapiens (Human))", "unit.info": "nM", "IC50": 12.4}
{"compound": "CN1C(=O)[C@@H](NC(=O)n2cc(Cc3ccccc3)cn2)COc2ccc(C#CC3(O)CCC3)cc21 [Compound I-219]", "measured.target": "RIPK1 (Homo sapiens (Human))", "unit.info": "nM", "IC50": 28.4}
{"compound": "CN1C(=O)[C@@H](NC(=O)c2ncn(Cc3c(Cl)cccc3Cl)n2)COc2ccc(CCC(=O)N3CCCC3)cc21 [Compound I-18]", "measured.target": "RIPK1 (Homo sapiens (Human))", "unit.info": "nM", "IC50": 164}
{"compound": "CN1C(=O)[C@@H](NC(=O)c2cc(Oc3ccc(F)cc3F)ccn2)COc2ccc(C#CC(C)(C)C)cc21 [Compound I-104]", "measured.target": "RIPK1 (Homo sapiens (Human))", "unit.info": "nM", "IC50": 581}
{"compound": "COC1(C#Cc2ccc3c(c2)N(C)C(=O)[C@@H](NC(=O)c2cc(Oc4ccccc4)ccn2)CO3)COC1 [Compound I-128]", "measured.target": "RIPK1 (Homo sapiens (Human))", "unit.info": "nM", "IC50": 19.7}
{"compound": "CN1C(=O)[C@@H](NC(=O)c2n[nH]c(Cc3ccccc3)n2)COc2ccc(C#C[C@@]3(O)CO[C@@H]4[C@@H](O)CO[C@@H]43)cc21 [Compound I-75]", "measured.target": "RIPK1 (Homo sapiens (Human))", "unit.info": "nM", "IC50": 54.6}
{"compound": "CN1C(=O)[C@@H](NC(=O)c2ncn(Cc3ccccc3F)n2)COc2ccc(CCC(=O)O)cc21 [Compound I-6]", "measured.target": "RIPK1 (Homo sapiens (Human))", "unit.info": "nM", "IC50": 72.4}
{"compound": "CN1C(=O)[C@@H](NC(=O)c2n[nH]c(Cc3ccccc3)n2)COc2ccc(CCCCO)cc21 [Compound I-15]", "measured.target": "RIPK1 (Homo sapiens (Human))", "unit.info": "nM", "IC50": 136}
{"compound": "COC1(C#Cc2ccc3c(c2)N(C)C(=O)[C@@H](NC(=O)c2cc(Oc4ccccc4)ccn2)CO3)CNC1 [Compound I-154]", "measured.target": "RIPK1 (Homo sapiens (Human))", "unit.info": "nM", "IC50": 26.7}
{"compound": "CN1C(=O)[C@@H](NC(=O)c2cc(OC3CCCC3)ccn2)COc2ccc(C#CC3(O)COC3)cc21 [Compound I-157]", "measured.target": "RIPK1 (Homo sapiens (Human))", "unit.info": "nM", "IC50": 31.6}
{"compound": "CN1C(=O)[C@@H](NC(=O)n2cc(Cc3ccccc3)cn2)COc2ccc(C#CC(C)(C)C)cc21 [Compound I-212]", "measured.target": "RIPK1 (Homo sapiens (Human))", "unit.info": "nM", "IC50": 154}
{"compound": "CN1C(=O)[C@@H](NC(=O)c2ncn(Cc3ccccc3)n2)COc2ccc(C#CCCOc3ccc4ncccc4c3)cc21 [Compound I-37]", "measured.target": "RIPK1 (Homo sapiens (Human))", "unit.info": "nM", "IC50": 56.5}
{"compound": "CN1C(=O)[C@@H](NC(=O)c2ncn(Cc3ccccc3)n2)COc2ccc(C#CCCOc3cccc4ncccc34)cc21 [Compound I-44]", "measured.target": "RIPK1 (Homo sapiens (Human))", "unit.info": "nM", "IC50": 34}
{"compound": "COc1ccnc(C(=O)N[C@H]2COc3ccc(C#CC(C)(C)O)cc3N(C)C2=O)c1 [Compound I-163]", "measured.target": "RIPK1 (Homo sapiens (Human))", "unit.info": "nM", "IC50": 509}
{"compound": "CN1C(=O)[C@@H](NC(=O)c2n[nH]c(Cc3ccccc3)n2)COc2ccc(/C=C/C(=O)N3CCCC3)cc21 [Compound I-22]", "measured.target": "RIPK1 (Homo sapiens (Human))", "unit.info": "nM", "IC50": 48}
{"compound": "CN1C(=O)[C@@H](NC(=O)c2ncn(Cc3ccccc3)n2)COc2cc(C#CC(C)(C)O)ccc21 [Compound I-62]", "measured.target": "RIPK1 (Homo sapiens (Human))", "unit.info": "nM", "IC50": 35.5}
{"compound": "CC(=O)O[C@@H](C(=O)O)[C@@H](OC(C)=O)C(=O)OCC(C)(C)C#Cc1ccc2c(c1)N(C)C(=O)[C@@H](NC(=O)c1cc(Oc3ccccc3)ccn1)CO2 [Compound I-145]", "measured.target": "RIPK1 (Homo sapiens (Human))", "unit.info": "nM", "IC50": 27.5}
{"compound": "CN1C(=O)[C@@H](NC(=O)c2cc(Oc3ccccc3)ccn2)COc2ccc(C#CC3(O)CCNCC3)cc21 [Compound I-132]", "measured.target": "RIPK1 (Homo sapiens (Human))", "unit.info": "nM", "IC50": 30.5}
{"compound": "Cc1c(Cc2ccccc2)cnn1C(=O)N[C@H]1COc2ccc(C#CC(C)(C)O)cc2N(C)C1=O [Compound I-220]", "measured.target": "RIPK1 (Homo sapiens (Human))", "unit.info": "nM", "IC50": 35.5}
{"compound": "CN1C(=O)[C@@H](NC(=O)c2ncn(Cc3c(Cl)cccc3Cl)n2)COc2ccc(CN3CCN(c4ccncc4)CC3)cc21 [Compound I-21]", "measured.target": "RIPK1 (Homo sapiens (Human))", "unit.info": "nM", "IC50": 77}
{"compound": "CN1C(=O)[C@@H](NC(=O)c2cc(Oc3ccccc3)ccn2)COc2ccc(C#CC3(O)CCOCC3)cc21 [Compound I-123]", "measured.target": "RIPK1 (Homo sapiens (Human))", "unit.info": "nM", "IC50": 35.7}
{"compound": "CN1C(=O)[C@@H](NC(=O)c2cc(Oc3ccc(C#N)cc3)ccn2)COc2cc(C#CC(C)(C)O)ccc21 [II-17]", "measured.target": "RIPK1 (Homo sapiens (Human))", "unit.info": "nM", "IC50": 518}
{"compound": "CN1C(=O)[C@@H](NC(=O)c2cc(Oc3ccccc3F)ccn2)COc2ccc(C#CC(C)(C)C)cc21 [Compound I-102]", "measured.target": "RIPK1 (Homo sapiens (Human))", "unit.info": "nM", "IC50": 383}
{"compound": "CN1C(=O)[C@@H](NC(=O)c2n[nH]c(Cc3ccccc3)n2)COc2ccc(C#C[C@@]3(O)CO[C@@H]4[C@@H](OC(=O)c5ccccc5)CO[C@@H]43)cc21 [Compound I-74]", "measured.target": "RIPK1 (Homo sapiens (Human))", "unit.info": "nM", "IC50": 51.8}
{"compound": "CN1C(=O)[C@@H](NC(=O)c2n[nH]c(Cc3ccccc3)n2)COc2ccc(CN3CCN(c4ccncc4)CC3)cc21 [Compound I-20]", "measured.target": "RIPK1 (Homo sapiens (Human))", "unit.info": "nM", "IC50": 153}

Data provenance: patent US11407736B2
